- tgt: UniProt P03956
- Sequence (P03956 100-469): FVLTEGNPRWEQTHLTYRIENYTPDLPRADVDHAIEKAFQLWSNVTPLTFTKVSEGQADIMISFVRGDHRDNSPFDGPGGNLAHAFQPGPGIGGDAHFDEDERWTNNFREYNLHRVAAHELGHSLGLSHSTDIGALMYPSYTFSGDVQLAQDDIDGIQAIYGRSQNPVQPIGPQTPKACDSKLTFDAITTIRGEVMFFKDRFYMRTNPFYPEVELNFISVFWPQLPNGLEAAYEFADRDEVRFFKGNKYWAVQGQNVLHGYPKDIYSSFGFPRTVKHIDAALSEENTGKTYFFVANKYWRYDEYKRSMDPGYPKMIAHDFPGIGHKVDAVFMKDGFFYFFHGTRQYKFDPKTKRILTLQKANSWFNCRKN
pIC50: −log10 of the molar value.
Each entry below carries its recorded pIC50.
property-name: pIC50

>>> recorded_value("c1cnc2c(c1)ccc1cccnc12 [1,10-Phen, 1,10-phenanthroline, reference compound]")
4.38
>>> recorded_value("COc1cc(/C=C/C(=O)C(C(=O)/C=C/c2ccc(O)c(OC)c2)C(=O)Nc2ccccc2)ccc1O")
4.17
>>> recorded_value("O=C(/C=C/c1ccc(O)cc1)C(C(=O)/C=C/c1ccc(O)cc1)C(=O)Nc1ccccc1")
4.16
>>> recorded_value("COC(=O)C(C(=O)/C=C/c1ccc(O)c(OC)c1)C(=O)/C=C/c1ccc(O)c(OC)c1")
4.13
